Cited source for all entries: patent US20240101668A1

biological target: T1, huCD33-R69-His recombinant protein (human, UniProt P20138 18-259); experiment: BLI;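 further: scFvs from periplasmic extracts captured on biosensors via anti-V5 antibody, exposed to recombinant huCD33 variants for 2 min, 5 min dissociation, scored as binding, no binding or ambiguous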
T1 construct: extracellular domain
T1 sequence (P20138 18-259): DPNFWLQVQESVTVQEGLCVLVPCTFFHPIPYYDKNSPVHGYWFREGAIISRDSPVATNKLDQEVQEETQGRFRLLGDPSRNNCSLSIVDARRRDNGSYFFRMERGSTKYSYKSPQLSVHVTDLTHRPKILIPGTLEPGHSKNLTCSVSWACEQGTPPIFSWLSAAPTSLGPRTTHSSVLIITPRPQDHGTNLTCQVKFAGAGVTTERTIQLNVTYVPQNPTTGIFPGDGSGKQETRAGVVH
Measured metric: binding result

>  <Binder>
Polypeptide No. 42 (scFv, V domains shown, scFv) VH: QVQLVQSGAEVKKPGASVKVSCKASGYTFTDYFMHWVRQAPGQGLEWMGWINPNSGNTGYAQKFQGRVTMTRDTSTSTVYMELSSLRSEDTAVYYCARLNDYGDYGGPATLDYWGQGTLVTVSS VL: DIQMTQSPSSLSASVGDRVTITCRASQGISNNLNWYQQKPGKAPKLLIYAASSLQSGVPSRFSGSGSGTDFTLTISSLQPEDFATYYCQQSYSTPPTFGQGTKLEIKR

>  <Measured metric>
binding result

>  <Recorded result>
no binding

$$$$
>  <Binder>
Polypeptide No. 36 (scFv, V domains shown, scFv) VH: QVQLVQSGAEVKKPGASVKVSCKASGGTFSSYAISWVRQAPGQGLEWLGIISPSGRSAGYGRKFQGRVTMTRDTSTSTVYMELSSLRSEDTAVYYCARTDYGGHKWYFDLWGRGTLVTVSS VL: DIQMTQSPSSLSASVGDRVTITCQASQGINNYLNWYQQKPGKAPKLLIYAASTLQRGVPSRFSGSGSGTDFTLTISSLQPEDFATYYCQQSYQTPLTFGGGTKVEIKR

>  <Measured metric>
binding result

>  <Recorded result>
no binding

$$$$
>  <Binder>
Polypeptide No. 31 (scFv, V domains shown, scFv) VH: QVQLVQSGAEVKKPGSSVKVSCKASGGTFSTYAITWVRQAPGQGLEWMGGIIPIVGRANYAQKFQGRVTITADESTSTAYMELSSLRSEDTAVYYCARSGGHDLDYWGQGTLVTVSS VL: DIQMTQSPSSLSASVGDRVTITCRASQGIGNDLGWYQQKPGKAPKLLIYGASSVQSGVPSRFSGSGSGTDFTLTISSLQPEDFATYYCQQSYSTPITFGQGTRLEIKR

>  <Measured metric>
binding result

>  <Recorded result>
no binding

$$$$
